# Tested on: Klebsiella pneumonia
# protocol.description: MIC against Gram-negative bacteria: Klebsiella pneumonia
# Assay type: cell-based
# test.parameters: Klebsiella pneumonia; 96-well plate, 5×10^5 CFU/mL, 37° C., 10 h
Entries and their MIC against K. pneumonia values follow.

{"substance": "PRT1197 (DIDECAAKMHYCHANTVCVNLPGLYRCDCVPGYIRVDDFSCT; listed as Homo sapiens)", "MIC against K. pneumonia, µg/mL": 50}
{"substance": "PRT1278 (DIDECRLNNGGCDHICRNTVGSFECSCKKGYKLLINERNCQ; listed as Homo sapiens)", "MIC against K. pneumonia, µg/mL": 12.5}
{"substance": "PRT1252 (CPLTCDDISGQVTCPPDWPCGSPGCWCPEGQVLGSEGWCV; listed as Homo sapiens)", "MIC against K. pneumonia, µg/mL": 12.5}
{"substance": "PRT1319 (SMGDCGPTGLAQHCHLHARCVSQEGVARCRCLDGFEGDGFS; listed as Homo sapiens)", "MIC against K. pneumonia, µg/mL": 25}
{"substance": "PRT1199 (AFCEEGCRYGGTCVAPNKCVCPSGFTGSHCE; listed as Homo sapiens)", "MIC against K. pneumonia, µg/mL": 12.5}
{"substance": "PRT1235 (IGPQCEEMCNGQGSCINGTKCICDPGYSGPTCK; listed as Homo sapiens)", "MIC against K. pneumonia, µg/mL": 12.5}
{"substance": "PRT1229 (DINECETGLAKCKYKAYCRNKVGGYICSCLVKYTLFNFLAGIIDYDHPDCY; listed as Homo sapiens)", "MIC against K. pneumonia, µg/mL": 12.5}
{"substance": "PRT1223 (LEGACTRSPCQHGGTCMDYWSWQQCHCKEGLTGKYCE; listed as Homo sapiens)", "MIC against K. pneumonia, µg/mL": 50}
{"substance": "PRT1286 (PKSPCEGTECQNGANCVDQGNRPVCQCLPGFGGPECE; listed as Homo sapiens)", "MIC against K. pneumonia, µg/mL": 50}
{"substance": "PRT1302 (QTSPCDQYECQNGAQCIVVQQEPTCRCPPGFAGPRCE; listed as Homo sapiens)", "MIC against K. pneumonia, µg/mL": 50}
{"substance": "PRT1304 (ARDPCLGHRCHHGKCVATGTSYMCKCAEGYGGDLCD; listed as Homo sapiens)", "MIC against K. pneumonia, µg/mL": 12.5}
{"substance": "PRT1314 (ARNPCTDGHRGGCSEHANCLSTGLNTRRCECHAGYVGDGLQCL; listed as Homo sapiens)", "MIC against K. pneumonia, µg/mL": 50}
{"substance": "PRT1203 (DIDECAEGRHYCRENTMCVNTPGSFMCICKTGYIRIDDYSCT; listed as Homo sapiens)", "MIC against K. pneumonia, µg/mL": 25}
{"substance": "PRT1270 (DVDECSLDRTCDHSCINHPGTFACACNRGYTLYGFTHCG; listed as Homo sapiens)", "MIC against K. pneumonia, µg/mL": 12.5}
{"substance": "PRT1334 (PINPCLRKICHPHAHCTYLGPNRHSCTCQEGYRGDGQVCL; listed as Homo sapiens)", "MIC against K. pneumonia, µg/mL": 12.5}
{"substance": "PRT1244 (CGSTCPTCVQGSCDTVTGDCVCSAGYWGPSCN; listed as Homo sapiens)", "MIC against K. pneumonia, µg/mL": 12.5}
{"substance": "PRT1320 (PSNPCSHPDRGGCSENAECVPGSLGTHHCTCHKGWSGDGRVCV; listed as Homo sapiens)", "MIC against K. pneumonia, µg/mL": 12.5}
{"substance": "PRT1321 (AIDECELDMRGGCHTDALCSYVGPGQSRCTCKLGFAGDGYQCS; listed as Homo sapiens)", "MIC against K. pneumonia, µg/mL": 25}
{"substance": "PRT1216 (YPDACKRSPCQHGGSCTGLPSGGYQCTCLSQFTGRNCE; listed as Homo sapiens)", "MIC against K. pneumonia, µg/mL": 12.5}
{"substance": "PRT1309 (EVDPCAHGHGGCSPHANCTKVAPGQRTCTCQDGYMGDGELCQ; listed as Homo sapiens)", "MIC against K. pneumonia, µg/mL": 50}
{"substance": "PRT1201 (DIDECALRTHTCWNDSACINLAGGFDCLCPSGPSCS; listed as Homo sapiens)", "MIC against K. pneumonia, µg/mL": 25}
{"substance": "PRT1265 (DVDECLENNGGCQHTCVNVMGSYECCCKEGFFLSDNQHTCI; listed as Homo sapiens)", "MIC against K. pneumonia, µg/mL": 12.5}
{"substance": "PRT1242 (WGPECQQQCECVRGRCSAASGECTCPPGFRGARCE; listed as Homo sapiens)", "MIC against K. pneumonia, µg/mL": 12.5}
{"substance": "PRT1208 (VHHGCEDDPCPEGSECVSDPWEEKHTCVCPSGRFGQCP; listed as Homo sapiens)", "MIC against K. pneumonia, µg/mL": 25}
